# target_of_assay: Tyrosine-protein kinase ITK/TSK (Homo sapiens);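 also: values are mean percent inhibition of ITK from the GSK PKIS screen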
# Sequence (whole entry): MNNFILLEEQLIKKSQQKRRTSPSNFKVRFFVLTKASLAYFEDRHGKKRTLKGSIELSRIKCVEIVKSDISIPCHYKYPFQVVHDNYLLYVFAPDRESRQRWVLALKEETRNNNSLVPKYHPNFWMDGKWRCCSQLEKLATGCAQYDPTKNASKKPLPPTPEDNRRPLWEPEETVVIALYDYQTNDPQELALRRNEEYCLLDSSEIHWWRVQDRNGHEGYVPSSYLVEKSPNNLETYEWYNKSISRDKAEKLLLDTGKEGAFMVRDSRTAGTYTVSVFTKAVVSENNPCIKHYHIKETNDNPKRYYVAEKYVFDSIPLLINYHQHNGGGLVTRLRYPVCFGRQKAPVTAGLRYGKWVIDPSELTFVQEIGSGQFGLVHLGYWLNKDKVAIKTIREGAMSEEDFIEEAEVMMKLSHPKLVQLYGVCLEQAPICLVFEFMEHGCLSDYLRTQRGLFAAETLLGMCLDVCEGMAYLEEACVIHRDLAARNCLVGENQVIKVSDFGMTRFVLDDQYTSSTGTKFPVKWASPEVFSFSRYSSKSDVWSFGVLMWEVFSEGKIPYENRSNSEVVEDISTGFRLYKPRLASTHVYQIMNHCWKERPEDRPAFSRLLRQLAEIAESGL
# condition_details: at 1 µM
observed_property: inhibition (%)
State just the number; it will be interpreted in %.

Some entries whose results are on file:
> print(dat)
                                item.smiles  observed.property  reported.value
1  CN(c1ccc(NC(=O)NCCN2CCOCC2)cc1)c1ccnc(Nc2ccc(CS(C)(=O)=O)cc2)n1         inhibition            9.06
2  CCN1CCC(C(=O)Nc2n[nH]c3nnc(-c4cccc(F)c4F)cc23)CC1         inhibition            0.88

Entry `CNC(=O)c1ncccc1Nc1nc(Nc2cc3c(cc2OC)CCCN3C(=O)CN(C)C)nc2[nH]ccc12` has what inhibition?
2.8
